- tgt: α1a-AR (Homo sapiens, UniProt P35348)
- Construct: expressed in transfected cells; host or cells: COS cells (transient, DEAE-dextran), membranes
- protocol-text: Radioligand ([125I]-HEAT) receptor binding assay, COS cell membranes expressing α1a-AR
- condition-info: Table B, [125I]-HEAT 50 pM
assay-metric: pIC50
Keep it numeric: pIC50 is minus log10 of the concentration in mol/L.

Identify the reported pIC50 for the following entry. CC(C)Oc1ccccc1N1CCN(CCNC(=O)CN2C(=O)c3ccccc3C2=O)CC1 [compound 13]
6.98

###

- tgt: α1a-AR (Homo sapiens, UniProt P35348)
- Construct: expressed in transfected cells; host or cells: COS cells (transient, DEAE-dextran), membranes
- protocol-text: Radioligand ([125I]-HEAT) receptor binding assay, COS cell membranes expressing α1a-AR
- condition-info: Table A, [125I]-HEAT 50 pM
Collected IC50 values appear next to each entry.
// note: answer is a bare numeric in nM

Here are 5 compounds together with their reported answers.
compound=CC(C)Oc1ccccc1N1CCN(CCN(C)C(=O)CN2CCCCC2=O)CC1 reported=53
compound=C=CCN(CCN1CCN(c2ccccc2OC(C)C)CC1)C(=O)CN1CCCCC1=O reported=103
compound=CC(C)Oc1ccccc1N1CCN(CCN(Cc2ccccc2)C(=O)CN2CCCCC2=O)CC1 reported=88
compound=CC(C)Oc1ccccc1N1CCN(CCNC(=O)CN2CCCCCC2=O)CC1 reported=18
compound=COc1ccccc1N1CCN(CCCNC(=O)CN2CCCCC2=O)CC1 reported=98

In one line, give reported IC50 of the entry CCOC(=O)C1CCC(=O)N1CC(=O)NCCN1CCN(c2ccccc2OC(C)C)CC1 (stereo not shown) .
20

Using known records, supply IC50 for CC(C)Oc1ccccc1N1CCN(CCNC(=O)CN2CCCCC2=O)CC1
8.7

###

- tgt: α1d-AR (Homo sapiens)
- Construct: expressed in transfected cells; host or cells: COS cells (transient, DEAE-dextran), membranes
- protocol-text: Radioligand ([125I]-HEAT) receptor binding assay, COS cell membranes expressing α1d-AR
- condition-info: Table B, [125I]-HEAT 50 pM
assay-metric: pIC50
Worth noting: pIC50 values are minus log10 of concentrations stated in mol/L.

Consider the compound CC(C)Oc1ccccc1N1CCN(CCNC(=O)CN2C(=O)c3ccccc3C2=O)CC1 and give its recorded pIC50.
7.96

###

- tgt: HEK 293s cells expressing human α1a-AR (Homo sapiens)
- Sequence (P35348 1-466): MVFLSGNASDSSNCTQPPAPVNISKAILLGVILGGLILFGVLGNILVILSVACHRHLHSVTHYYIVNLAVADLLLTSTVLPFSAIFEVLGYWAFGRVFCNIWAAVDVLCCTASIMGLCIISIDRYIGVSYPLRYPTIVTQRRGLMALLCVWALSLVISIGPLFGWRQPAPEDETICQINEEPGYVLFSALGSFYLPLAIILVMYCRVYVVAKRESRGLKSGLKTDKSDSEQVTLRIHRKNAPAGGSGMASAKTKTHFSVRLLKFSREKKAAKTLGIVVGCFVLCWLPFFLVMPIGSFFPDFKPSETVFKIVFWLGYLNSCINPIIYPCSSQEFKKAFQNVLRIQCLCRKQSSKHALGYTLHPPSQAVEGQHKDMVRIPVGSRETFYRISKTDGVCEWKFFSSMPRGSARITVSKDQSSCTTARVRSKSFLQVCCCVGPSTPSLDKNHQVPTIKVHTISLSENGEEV
- protocol-text: Antagonism of norepinephrine-induced mobilization of cytosolic calcium (Fluo-3, FLIPR)
- condition-info: norepinephrine 10 uM, read-out: IC50 for inhibition of the mobilization of cytosolic calcium
assay-metric: IC50 (µM)
Express it in µM; write the number only.

Using the record for CC(C)Oc1ccccc1N1CCN(CCNC(=O)CN2CCCCC2=O)CC1 , state its measured IC50.
99

###

- tgt: α1d-AR (Homo sapiens, UniProt P25100)
- Construct: expressed in transfected cells; host or cells: COS cells (transient, DEAE-dextran), membranes
- Sequence (P25100 whole entry): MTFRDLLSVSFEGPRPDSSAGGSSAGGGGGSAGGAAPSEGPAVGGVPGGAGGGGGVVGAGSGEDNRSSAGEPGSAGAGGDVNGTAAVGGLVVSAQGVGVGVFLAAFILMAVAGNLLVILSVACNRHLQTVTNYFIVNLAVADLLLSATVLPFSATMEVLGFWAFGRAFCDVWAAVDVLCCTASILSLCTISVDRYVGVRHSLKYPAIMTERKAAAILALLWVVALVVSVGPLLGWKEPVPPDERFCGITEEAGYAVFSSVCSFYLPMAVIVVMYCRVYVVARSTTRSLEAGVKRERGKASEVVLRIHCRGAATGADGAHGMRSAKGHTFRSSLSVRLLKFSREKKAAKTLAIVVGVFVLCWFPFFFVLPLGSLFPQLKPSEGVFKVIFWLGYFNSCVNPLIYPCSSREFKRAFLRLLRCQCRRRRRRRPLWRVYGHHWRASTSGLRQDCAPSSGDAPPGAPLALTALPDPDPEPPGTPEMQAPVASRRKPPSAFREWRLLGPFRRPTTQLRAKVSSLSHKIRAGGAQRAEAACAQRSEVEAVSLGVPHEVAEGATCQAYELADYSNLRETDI
- protocol-text: Radioligand ([125I]-HEAT) receptor binding assay, COS cell membranes expressing α1d-AR
- condition-info: Table A, [125I]-HEAT 50 pM
assay-metric: IC50 (nM)
Please reply with the bare figure in nM and do not write the unit itself.

Some compounds with known IC50 results, for comparison:
compound=CC(C)Oc1ccccc1N1CCN(CCNC(=O)CN2CCCCCC2=O)CC1 tgt="α1d-AR (Homo sapiens, UniProt P25100)" assay_metric=IC50 unit_string=nM reported=505
compound=C=CCN(CCN1CCN(c2ccccc2OC(C)C)CC1)C(=O)CN1CCCCC1=O tgt="α1d-AR (Homo sapiens, UniProt P25100)" assay_metric=IC50 unit_string=nM reported=372
compound="CCOC(=O)C1CCC(=O)N1CC(=O)NCCN1CCN(c2ccccc2OC(C)C)CC1 (stereo not shown)" tgt="α1d-AR (Homo sapiens, UniProt P25100)" assay_metric=IC50 unit_string=nM reported=260
compound=COc1ccccc1N1CCN(CCCNC(=O)CN2CCCCC2=O)CC1 tgt="α1d-AR (Homo sapiens, UniProt P25100)" assay_metric=IC50 unit_string=nM reported=30500
compound=CC(C)Oc1ccccc1N1CCN(CCN(C)C(=O)CN2CCCCC2=O)CC1 tgt="α1d-AR (Homo sapiens, UniProt P25100)" assay_metric=IC50 unit_string=nM reported=650

Output measured IC50 for this item: CC(C)Oc1ccccc1N1CCN(CCN(Cc2ccccc2)C(=O)CN2CCCCC2=O)CC1
348

State its IC50: CC(C)Oc1ccccc1N1CCN(CCNC(=O)CN2CCCCC2=O)CC1
372
